Each recorded value in this set is attributed to paper PMC10786919.

measurement.protocol: Solubility assay (kinetic solubility, PBS pH 7)
Assay type: physicochemical
condition.summary: pH 7, aqueous buffer, kinetic from dmso stock, pH 7, PBS; read-out: Solubility
Positions of bridges follow the written chain, without caps; N, C: chain ends. Non-standard residues stand in square brackets, D forms with d. Residues, ends and D or L forms follow the SMILES beside them. Lys(N3) = [N-]=[N+]=NCCCC[C@H](N)C(=O)O; R8 = C=CCCCCCC[C@@](C)(N)C(=O)O; Cba = N[C@@H](CC1CCC1)C(=O)O; S5 = C=CCCC[C@](C)(N)C(=O)O; βAla = NCCC(=O)O
quantity: solubility kinetic (µM)
Provide the reading as a plain figure in µM.

Known solubility kinetic results, listed for orientation:
CC(=O)N[C@@H](CCCCN=[N+]=[N-])C(=O)N[C@@H](CCCCN)C(=O)N[C@@H](CC(C)C)C(=O)N[C@H](C(=O)N[C@@H](Cc1ccccc1)C(=O)N[C@]1(C)CCCCCCC=CCCC[C@@](C)(C(=O)N[C@@H](CO)C(=O)N[C@@H](C)C(=O)N[C@@H](C)C(N)=O)NC(=O)[C@H](CC2CCC2)NC(=O)[C@H](CCC(N)=O)NC(=O)[C@H](C)NC(=O)[C@H](Cc2c[nH]c3ccccc23)NC(=O)[C@H](Cc2ccc(O)cc2)NC(=O)[C@H](CCC(=O)O)NC1=O)[C@@H](C)O : 3
CC(=O)N[C@@H](CCCCN=[N+]=[N-])C(=O)NCCC(=O)N[C@@H](CC(C)C)C(=O)N[C@H](C(=O)N[C@@H](Cc1ccccc1)C(=O)N[C@]1(C)CCCCCCC=CCCC[C@@](C)(C(=O)N[C@@H](CO)C(=O)N[C@@H](C)C(=O)N[C@@H](C)C(N)=O)NC(=O)[C@H](CCC(N)=O)NC(=O)[C@H](Cc2ccc(O)cc2)NC(=O)[C@H](Cc2c[nH]c3ccccc23)NC(=O)[C@H](CC2CCC2)NC(=O)[C@H](CCC(=O)O)NC(=O)[C@H](C)NC1=O)[C@@H](C)O [MP-205] (Ac-[Lys(N3)][βAla]LTF[R8]AE[Cba]WYQ[S5]SAA-NH2; staple 6-13) : 16

# input for lookup
Inquiry: Using the record for CC(=O)N[C@@H](CCCCN=[N+]=[N-])C(=O)NCCC(=O)N[C@@H](CC(C)C)C(=O)N[C@H](C(=O)N[C@@H](Cc1ccccc1)C(=O)N[C@]1(C)CCCCCCC=CCCC[C@@](C)(C(=O)N[C@@H](CO)C(=O)N[C@@H](C)C(=O)N[C@@H](C)C(N)=O)NC(=O)[C@H](CC2CCC2)NC(=O)[C@H](CCC(N)=O)NC(=O)[C@H](Cc2c[nH]cn2)NC(=O)[C@H](Cc2c[nH]c3ccccc23)NC(=O)[C@H](Cc2ccc(O)cc2)NC(=O)[C@H](CCC(=O)O)NC1=O)[C@@H](C)O [MP-496, AZIDE-ATSP-7041 (A8H)] , report its solubility kinetic.
Reply text: 20

====

measurement.protocol: Lactate dehydrogenase (LDH) release assay
Format: cell-based
condition.summary: LDH: Cytotoxicity assay: EC50
Description: HCT116 cells were stably transfected with a p53 responsive β-lactamase reporter and expanded in McCoy’s 5 A Medium with 10% fetal bovine serum (FBS), Blasticidin, and Penicillin/Streptomycin and then transferred to 1.5 ml freezing vials and stored under liquid nitrogen in growth media containing 5% DMSO. […] Lactate dehydrogenase release was detected using the CytoTox-ONE Homogenous Membrane Integrity Assay Kit (Promega), as per the manufacturer’s instructions. […]
Positions of bridges follow the written chain, without caps; N, C: chain ends. Non-standard residues stand in square brackets, D forms with d. Residues, ends and D or L forms follow the SMILES beside them. Lys(N3) = [N-]=[N+]=NCCCC[C@H](N)C(=O)O; R8 = C=CCCCCCC[C@@](C)(N)C(=O)O; Cba = N[C@@H](CC1CCC1)C(=O)O; S5 = C=CCCC[C@](C)(N)C(=O)O; βAla = NCCC(=O)O
# maps each entry to its EC50

CC(=O)N[C@@H](CCCCN=[N+]=[N-])C(=O)NCCC(=O)N[C@@H](CC(C)C)C(=O)N[C@H](C(=O)N[C@@H](Cc1ccccc1)C(=O)N[C@]1(C)CCCCCCC=CCCC[C@@](C)(C(=O)N[C@@H](CO)C(=O)N[C@@H](C)C(=O)N[C@@H](C)C(N)=O)NC(=O)[C@H](CCC(N)=O)NC(=O)[C@H](Cc2ccc(O)cc2)NC(=O)[C@H](Cc2c[nH]c3ccccc23)NC(=O)[C@H](CC2CCC2)NC(=O)[C@H](CCC(=O)O)NC(=O)[C@H](C)NC1=O)[C@@H](C)O [MP-205] (Ac-[Lys(N3)][βAla]LTF[R8]AE[Cba]WYQ[S5]SAA-NH2; staple 6-13) : > 50.7 µM
CC(=O)N[C@@H](CC(C)C)C(=O)N[C@H](C(=O)N[C@@H](C)C(=O)N[C@]1(C)CCCCCCC=CCCC[C@@](C)(C(=O)N[C@@H](CO)C(=O)N[C@@H](C)C(=O)N[C@H](C)C(N)=O)NC(=O)[C@H](CC2CCC2)NC(=O)[C@H](CC(C)C)NC(=O)[C@H](CCC(N)=O)NC(=O)[C@H](Cc2c[nH]c3ccccc23)NC(=O)[C@H](Cc2ccc(O)cc2)NC(=O)[C@H](CCC(=O)O)NC1=O)[C@@H](C)O [MP-671] (Ac-LTA[R8]EYWQL[Cba][S5]SA[dA]-NH2; staple 4-11) : > 50.6 µM
CC(=O)N[C@@H](CCCCN=[N+]=[N-])C(=O)N[C@@H](CCCCN)C(=O)N[C@@H](CC(C)C)C(=O)N[C@H](C(=O)N[C@@H](Cc1ccccc1)C(=O)N[C@]1(C)CCCCCCC=CCCC[C@@](C)(C(=O)N[C@@H](CO)C(=O)N[C@@H](C)C(=O)N[C@@H](C)C(N)=O)NC(=O)[C@H](CC2CCC2)NC(=O)[C@H](CCC(N)=O)NC(=O)[C@H](C)NC(=O)[C@H](Cc2c[nH]c3ccccc23)NC(=O)[C@H](Cc2ccc(O)cc2)NC(=O)[C@H](CCC(=O)O)NC1=O)[C@@H](C)O : > 50 µM

Inquiry: Quick one: EC50 of CC(=O)N[C@H](C(=O)N[C@@H](CO)C(=O)NC(C)(Cc1ccccc1)C(=O)N[C@@H]1CCCCCCC=CCCC[C@@H](C(N)=O)NC(=O)C(C)(CC(C)C)NC(=O)[C@H](CC(C)C)NC(=O)[C@H](C)NC(=O)[C@H](Cc2c[nH]c3ccccc23)NC(=O)[C@H](Cc2ccc(O)cc2)NC(=O)[C@H](CCC(=O)O)NC1=O)[C@@H](C)O (stereo partly shown) ?
Reply text: > 50 µM

Inquiry: Which EC50 value is on record for CC(C)C[C@H](NC(=O)CCNC(=O)[C@@H](N)CCCCN=[N+]=[N-])C(=O)N[C@H](C(=O)N[C@@H](Cc1ccccc1)C(=O)N[C@]1(C)CCCCCCC=CCCC[C@@](C)(C(N)=O)NC(=O)[C@H](CC2CCC2)NC(=O)[C@H](CC(C)C)NC(=O)[C@H](CCC(N)=O)NC(=O)[C@H](Cc2c[nH]c3ccccc23)NC(=O)[C@H](Cc2ccc(O)cc2)NC(=O)[C@H](CCC(=O)O)NC1=O)[C@@H](C)O [MP-329] (H-[Lys(N3)][βAla]LTF[R8]EYWQL[Cba][S5]-NH2; staple 6-13) ?
Reply text: > 50.7 µM

Inquiry: Entry CC(=O)N[C@@H](CCCCN=[N+]=[N-])C(=O)NCCC(=O)N[C@@H](CC(C)C)C(=O)N[C@H](C(=O)N[C@@H](Cc1ccccc1)C(=O)N[C@]1(C)CCCCCCC=CCCC[C@@](C)(C(=O)N[C@@H](CO)C(=O)N[C@@H](C)C(=O)N[C@@H](C)C(N)=O)NC(=O)[C@H](CC2CCC2)NC(=O)[C@@H]2CCCN2C(=O)[C@H](C)NC(=O)[C@H](Cc2c[nH]c3ccccc23)NC(=O)[C@H](Cc2ccc(O)cc2)NC(=O)[C@H](CCC(=O)O)NC1=O)[C@@H](C)O [MP-260] (Ac-[Lys(N3)][βAla]LTF[R8]EYWAP[Cba][S5]SAA-NH2; staple 6-13) has what EC50?
Reply text: > 50.6 µM

Inquiry: Report EC50 for CC(=O)N[C@@H](CCCNC(=N)N)C(=O)NCCCCCC(=O)N[C@@H](CCCCN=[N+]=[N-])C(=O)N[C@@H](CC(C)C)C(=O)N[C@H](C(=O)N[C@@H](Cc1ccccc1)C(=O)N[C@]1(C)CCCCCCC=CCCC[C@@](C)(C(=O)N[C@@H](CO)C(=O)N[C@@H](C)C(=O)N[C@@H](C)C(N)=O)NC(=O)[C@H](CC2CCC2)NC(=O)[C@H](CCC(N)=O)NC(=O)[C@H](C)NC(=O)[C@H](Cc2c[nH]c3ccccc23)NC(=O)[C@H](Cc2ccc(O)cc2)NC(=O)[C@H](CCC(=O)O)NC1=O)[C@@H](C)O please.
Reply text: > 50 µM
